Target: UniProt:Q9UBN7
Sequence (Q9UBN7 whole entry): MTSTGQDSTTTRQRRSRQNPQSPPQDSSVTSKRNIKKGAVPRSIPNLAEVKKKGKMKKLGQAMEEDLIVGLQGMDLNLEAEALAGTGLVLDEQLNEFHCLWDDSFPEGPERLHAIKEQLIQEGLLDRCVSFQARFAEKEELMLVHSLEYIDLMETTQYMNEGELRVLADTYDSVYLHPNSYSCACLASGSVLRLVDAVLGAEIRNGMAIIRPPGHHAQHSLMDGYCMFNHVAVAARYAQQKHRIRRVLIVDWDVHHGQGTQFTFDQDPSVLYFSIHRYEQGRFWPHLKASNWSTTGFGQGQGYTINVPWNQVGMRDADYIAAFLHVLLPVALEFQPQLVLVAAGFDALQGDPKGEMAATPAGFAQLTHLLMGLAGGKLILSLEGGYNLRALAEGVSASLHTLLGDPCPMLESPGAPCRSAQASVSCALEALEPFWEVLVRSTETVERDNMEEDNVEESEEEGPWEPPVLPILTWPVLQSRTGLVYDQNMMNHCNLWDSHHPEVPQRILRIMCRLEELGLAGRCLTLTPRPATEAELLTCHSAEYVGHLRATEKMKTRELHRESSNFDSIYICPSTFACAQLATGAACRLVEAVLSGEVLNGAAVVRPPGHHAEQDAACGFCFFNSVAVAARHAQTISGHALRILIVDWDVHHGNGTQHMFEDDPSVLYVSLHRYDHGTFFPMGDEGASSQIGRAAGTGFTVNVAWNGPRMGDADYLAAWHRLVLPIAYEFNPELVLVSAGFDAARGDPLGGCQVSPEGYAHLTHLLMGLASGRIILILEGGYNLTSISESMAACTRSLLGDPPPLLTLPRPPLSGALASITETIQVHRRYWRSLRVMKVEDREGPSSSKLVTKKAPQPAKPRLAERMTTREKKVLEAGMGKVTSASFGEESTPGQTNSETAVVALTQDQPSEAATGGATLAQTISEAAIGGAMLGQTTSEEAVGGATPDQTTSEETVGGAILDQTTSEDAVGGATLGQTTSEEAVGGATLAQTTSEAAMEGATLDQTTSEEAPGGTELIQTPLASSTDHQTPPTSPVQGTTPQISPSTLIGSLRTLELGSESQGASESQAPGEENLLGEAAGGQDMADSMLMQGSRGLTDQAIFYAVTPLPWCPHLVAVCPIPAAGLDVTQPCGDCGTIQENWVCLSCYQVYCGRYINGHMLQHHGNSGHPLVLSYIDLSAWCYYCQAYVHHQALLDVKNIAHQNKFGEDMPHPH
Experiment: Inhibition of recombinant HDAC6 (unknown origin) expressed in Escherichia coli BL21(DE3) after 60 mins using trichostatin A by label-free mass spectrometry-based SAMDI assay
testReadout: pIC50
Please express pIC50 as -log10 of the molar concentration.

Input: Specify pIC50 for CC[C@@H]1OC(=O)[C@@H](C)[C@H](O[C@H]2C[C@@](C)(OC)[C@@H](O)[C@H](C)O2)[C@@H](C)[C@H](O[C@H]2O[C@@H](C)C[C@@H](N(C)C)[C@@H]2O)[C@](C)(O)C[C@H](C)CN(Cc2ccc(-c3cn(CCCCC(=O)NO)nn3)cc2)[C@H](C)[C@H](O)[C@@]1(C)O , system UniProt:Q9UBN7.
Output: 7.61

Input: Fill in: pIC50 on UniProt:Q9UBN7, entry CC[C@@H]1OC(=O)[C@@H](C)[C@H](O[C@@H]2C[C@](C)(OC)[C@@](O)(CN(C)C)[C@@H](C)O2)[C@H](C)[C@H](O[C@@H]2O[C@H](C)C[C@H](N(C)Cc3ccc(-c4cn(CCCCCCC(=O)NO)nn4)cc3)[C@H]2O)[C@@](C)(OC)C[C@H](C)C(=O)[C@@H](C)[C@@H](O)[C@@]1(C)O
Output: 7.50

Input: Give reported pIC50 for CC[C@H]1OC(=O)[C@@H](C)[C@H](O[C@H]2C[C@@](C)(OC)[C@@H](O)[C@H](C)O2)[C@H](C)[C@H](O[C@H]2O[C@@H](C)C[C@@H](N(C)Cc3ccc(-c4cn(CC(=O)NO)nn4)cc3)[C@@H]2O)[C@@](C)(O)C[C@H](C)CN(C)[C@@H](C)[C@H](O)[C@@]1(C)O (UniProt:Q9UBN7)
Output: 5.25

---

Target: UniProtKB Q9BY41
Sequence (Q9BY41 whole entry): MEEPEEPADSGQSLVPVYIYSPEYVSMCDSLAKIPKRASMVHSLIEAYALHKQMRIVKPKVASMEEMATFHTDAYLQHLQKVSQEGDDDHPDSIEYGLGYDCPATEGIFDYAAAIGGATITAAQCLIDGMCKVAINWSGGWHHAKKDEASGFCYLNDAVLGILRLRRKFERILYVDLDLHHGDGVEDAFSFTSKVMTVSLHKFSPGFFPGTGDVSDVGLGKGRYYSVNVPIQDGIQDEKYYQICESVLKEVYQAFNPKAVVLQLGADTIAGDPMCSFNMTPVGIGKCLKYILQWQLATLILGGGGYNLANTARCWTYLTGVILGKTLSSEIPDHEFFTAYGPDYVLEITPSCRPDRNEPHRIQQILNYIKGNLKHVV
Experiment: Inhibition of recombinant HDAC8 (unknown origin) expressed in Escherichia coli BL21(DE3) after 60 mins using trichostatin A by label-free mass spectrometry-based SAMDI assay
This section presents compounds with their documented pIC50 values.
The value called pIC50 is obtained by taking minus log10 of the concentration in mol/L.

Here's what some known entries look like.
>  <smilesRepresentation>
CC[C@@H]1OC(=O)[C@@H](C)[C@H](O[C@H]2C[C@@](C)(OC)[C@](O)(CN(C)Cc3ccc(-c4cn(CCC(=O)NO)nn4)cc3)[C@H](C)O2)[C@H](C)[C@H](O[C@@H]2O[C@H](C)C[C@H](N(C)C)[C@H]2O)[C@@](C)(OC)C[C@H](C)C(=O)[C@@H](C)[C@@H](O)[C@@]1(C)O

>  <experimentalTarget>
UniProtKB Q9BY41

>  <pIC50>
4.99

$$$$
>  <smilesRepresentation>
CC[C@H]1OC(=O)[C@H](C)[C@@H](O[C@@H]2C[C@](C)(OC)[C@@](O)(CN(C)Cc3ccc(-c4cn(CCCCCC(=O)NO)nn4)cc3)[C@@H](C)O2)[C@@H](C)[C@@H](O[C@H]2O[C@@H](C)C[C@@H](N(C)C)[C@@H]2O)[C@](C)(OC)C[C@@H](C)C(=O)[C@H](C)[C@H](O)[C@]1(C)O

>  <experimentalTarget>
UniProtKB Q9BY41

>  <pIC50>
6.01

$$$$
>  <smilesRepresentation>
CC[C@@H]1OC(=O)[C@H](C)[C@@H](O[C@@H]2C[C@](C)(OC)[C@H](O)[C@@H](C)O2)[C@@H](C)[C@@H](O[C@@H]2O[C@H](C)C[C@H](N(C)Cc3cccc(-c4cn(CCCCCCC(=O)NO)nn4)c3)[C@H]2O)[C@](C)(O)C[C@@H](C)CN(C)[C@H](C)[C@@H](O)[C@]1(C)O

>  <experimentalTarget>
UniProtKB Q9BY41

>  <pIC50>
5.84

$$$$

Input: Input CC[C@H]1OC(=O)[C@@H](C)[C@H](O[C@H]2C[C@@](C)(OC)[C@](O)(CN(C)Cc3ccc(-c4cn(CCCCC(=O)NO)nn4)cc3)[C@H](C)O2)[C@H](C)[C@H](O[C@H]2O[C@@H](C)C[C@@H](N(C)C)[C@@H]2O)[C@@](C)(O)C[C@H](C)CN(C)[C@@H](C)[C@H](O)[C@@]1(C)O , output reported pIC50.
Output: 6.15
